test system: NCI-H23 lung; assay: NCI tumour cell line growth inhibition, 48 h
measure_name: GI50

Example entries begin here.
compound_smiles: COc1ccc(/C=N/NC(=O)c2cccc3cc[nH]c23)cc1O
GI50: 6.57 µM

compound_smiles: CCN(Cc1ccc(F)cc1)c1cc(Cl)c(CO)c(Cl)c1
GI50: 13 µM

compound_smiles: C=C1C(=O)O[C@H]2[C@H]1CC/C(COC(=O)NCc1ccc(Cn3c(=O)sn(-c4ccc(OC)cc4)c3=O)cc1)=C\CC[C@@]1(C)O[C@@H]21
GI50: 2.97 µM

Next compound, GI50 to be filled in.
**Query** Which GI50 value is on record for CCN(C(=O)N1CCN(c2cc3c(cc2F)c(=O)c(C(=O)O)cn3C2CC2)CC1)c1nc(-c2ccc(Cl)cc2)cs1 ?
**Result** 1.56 µM

----------
Please provide measured TGI for the entries that follow.
test system: MDA-N; test: NCI tumour cell line growth inhibition, 48 h

Example entries begin here.
molecule: C[C@]12CC[C@H](O)CC1=CC[C@@H]1[C@@H]2CC[C@]2(C)C(=N/N)/C(=N\O)C[C@@H]12
TGI: 48.2 µM
//
molecule: Oc1ccccc1CNCc1nc2ccccc2[nH]1
TGI: > 100 µM
//
molecule: CC(C)=CCC(O)C1=CC(=O)c2c(O)ccc(O)c2C1=O (stereo not given)
TGI: 2.3 µM
//
molecule: Oc1ccc2c(c1)c1c(n2CCN2CCOCC2)-c2ccccc2CC1
TGI: > 100 µM
//
molecule: COC(=O)C1=C(C(=O)OC)SC(=C2SCSC3=C2SC(C(=O)OC)=C(C(=O)OC)C32SC3=C(CCCC3)S2)S1
TGI: > 100 µM
//
molecule: CN(C)CCNS(=O)(=O)c1ccc(N)cc1
TGI: > 100 µM

Need TGI for each of these molecules.
1. Cc1ccc(NC(=O)c2ccc(OP(=O)(O)Nc3ccc(C)cc3)cc2)cc1
2. Cc1ccnc(NS(=O)(=O)c2ccc(N=[N+]=[N-])cc2)n1
3. O=[N+]([O-])c1cc(C=NC23CC4CC(CC(C4)C2)C3)ccc1Cl
4. O=C(N/N=C/c1ccc(Cl)cc1)c1c(Cl)c(Cl)c(Cl)c(Cl)c1-c1nc2ccccc2[nH]1

**Result**
["> 100 µM", "> 100 µM", "32.3 µM", "> 100 µM"]

----------
test system: IGROV1 ovarian; assay: NCI tumour cell line growth inhibition, 48 h
measure_name: TGI (µM)
Answers are plain numbers, in µM.

compound_smiles: CC1=C2C(=C[C@@](C)(CO)[C@@H]2O)C(=O)[C@](C)(O)C12CC2
system: IGROV1 ovarian
reported: 0.0583

Next compound, TGI to be filled in.
**Query** Which TGI value is on record for Oc1ccc2c(c1)c1c(n2CCN2CCOCC2)-c2ccccc2CC1 ?
**Result** 57.6

----------
system: IGROV1 ovarian; assay: NCI tumour cell line growth inhibition, 48 h; in the data active = GI50 below about 0.43 µM; inactive = the rest
Mark one answer only. Choices: 1 (yes) (active), 0 (no) (inactive)

Use the examples below as a reference point.
compound: N#CC(C#N)=C/C=C(\Sc1nc2ccccc2s1)c1ccc(Cl)cc1
discrete_label: 0 (no)

compound: Nc1ccc(C2=NNC(=O)Cc3cc4c(cc32)OCCO4)cc1Cl
discrete_label: 0 (no)

compound: COc1ccc(C2[C@@H](c3ccccc3)C(=O)N2c2cc(OC)c(OC)c(OC)c2)cc1F (stereo not given in full)
discrete_label: 1 (yes)

compound: CCCCCCCCCCCCCCCC[N+](C)(C)Cc1ccccc1
discrete_label: 1 (yes)

compound: Nc1ccccc1SC(CC(=O)c1ccccc1)c1cccc([N+](=O)[O-])c1 (stereo not given)
discrete_label: 0 (no)

compound: O=c1ccc2ccccc2cc1[O-].O=c1ccc2ccccc2cc1[O-].[O]=[U+2]=[O]
discrete_label: 0 (no)

compound: Cn1ccc2c3c(Oc4ccc(NC(N)=O)cc4)ccnc3ccc21
discrete_label: 0 (no)

compound: CCn1c(-c2nonc2N)nc2c(C#CC(C)(C)O)nc(OC[C@@H](N)c3ccccc3)cc21
discrete_label: 0 (no)

compound: COC[C@H]1Cn2cc(-c3nc(Nc4ccnn4C)ncc3C)nc2C(=O)N1Cc1ccc(F)c(F)c1
discrete_label: 1 (yes)

Now consider a different compound.
**Query** Each compound tested received a call. Report the one for N#Cc1c[nH]n2c(N=Nc3ccc(Cl)cc3)c(O)nc12 .
**Result** 0 (no)

----------
Please provide measured TGI for the entries that follow.
tested on: HOP-62 NSCLC; experiment: NCI tumour cell line growth inhibition, 48 h
Give bare numbers, in µM.

compound_smiles: CCn1c(-c2nonc2N)nc2c(C#CC(C)(C)O)nc(OC[C@@H](N)c3ccccc3)cc21
TGI [µM]: 10.2

Next compound, TGI to be filled in.
**Query** Which TGI value is on record for O=C(OCc1ccccc1)N1CCNCCN(C(=O)OCc2ccccc2)CCNCC1 ?
**Result** 33.4

----------
test system: TK-10 renal; test: NCI tumour cell line growth inhibition, 48 h
measure_name: GI50

Example entries begin here.
compound: COc1cccc(C(=O)NC(c2ccc(C)cc2)c2cc(Cl)c3cccnc3c2O)c1 (stereo unspecified)
GI50: 0.393 µM

compound: O=C1CCCCN1c1ccccc1C#C/C=C\C#Cc1ccccc1C(F)(F)F
GI50: 3.35 µM

compound: O=C(Oc1ccc(Cl)cc1)c1ccccc1Nc1ccnc(C(F)(F)F)c1
GI50: 17.9 µM

compound: COCCOc1ccc(-c2nc3ccc(-c4nc5ccc(N6CCN(C)CC6)cc5[nH]4)cc3[nH]2)cc1
GI50: 4.74 µM

compound: Nc1ccc(C2=NNC(=O)Cc3cc4c(cc32)OCCO4)cc1Cl
GI50: 18.9 µM

Next compound, GI50 to be filled in.
**Query** Which GI50 value is on record for O=C1c2cc3c(cc2-c2c1c1ccc(F)cc1c(=O)n2C[C@H](O)[C@@H](O)[C@H](O)CO)OCO3 ?
**Result** 0.262 µM

----------
test system: DMS 114 small cell lung; assay: NCI tumour cell line growth inhibition, 48 h
Where a SMILES comes first, the peptide text is derived from it. [ ]: non-standard residue; d: D form. The star is where a group is joined. ξ: configuration not given here. X3 = COc1ccc(C(N*)c2ccc(OC)cc2)cc1; NMeF = CN[C@@H](Cc1ccccc1)C(=O)O; NMeD = CN[C@@H](CC(=O)O)C(=O)O; NMeV = CN[C@H](C(=O)O)C(C)C; ξNMeV = CNC(C(=O)O)C(C)C; Boc = CC(C)(C)OC(=O)*; ξNMeA = CNC(C)C(=O)O; ξV = CC(C)C(N)C(=O)O
Please provide measured TGI for the entries that follow.
One number for each entry, in µM.

Example entries begin here.
compound: O=c1ccc2ccccc2cc1[O-].O=c1ccc2ccccc2cc1[O-].[O]=[U+2]=[O]
system: DMS 114 small cell lung
measure_name: TGI
unit_spec: µM
reported: 55.3
--
compound: CC1=C(Cl)C=CP(=O)(Oc2ccccc2)C1 (configuration not stated)
system: DMS 114 small cell lung
measure_name: TGI
unit_spec: µM
reported: 90.9
--
compound: COc1ccc(C(NC(=O)C[C@@H](C(=O)N(C)C(C)C(=O)O)N(C)C(=O)[C@@H]2CCCN2C(=O)[C@H](C(C)C)N(C)C(=O)C(C(C)C)N(C)C(=O)[C@H](Cc2ccccc2)N(C)C(=O)C(NC(=O)OC(C)(C)C)C(C)C)c2ccc(OC)cc2)cc1 (some centres not stated) (Boc-[ξV][NMeF][ξNMeV][NMeV]P[NMeD](X3)[ξNMeA]-OH)
system: DMS 114 small cell lung
measure_name: TGI
unit_spec: µM
reported: 33.4
--
compound: COC(=O)[C@@H](O)[C@](O)(CCC(C)C)C(=O)O[C@@H]1C(OC)=C[C@]23CCCN2CCc2cc4c(cc2[C@H]13)OCO4
system: DMS 114 small cell lung
measure_name: TGI
unit_spec: µM
reported: 2.2

Next compound, TGI to be filled in.
**Query** Which TGI value is on record for CCCCCC[C@@H]1CCC2C(CO)[C@@H](O)CC[C@@H]2C1 (some centres not stated) ?
**Result** 37.5

----------
tested on: HT29 colon; assay: NCI tumour cell line growth inhibition, 48 h
measure_name: TGI

molecule: O=C1CCCCN1c1ccccc1C#C/C=C\C#Cc1ccccc1C(F)(F)F
TGI: 2.63 µM
--
molecule: COC(=O)CC(c1ccccc1)C1(c2ccccc2)SCCS1 (stereo not given)
TGI: > 290 µM
--
molecule: COc1ccc(/C=N/NC(=O)c2cccc3cc[nH]c23)cc1O
TGI: > 100 µM
--
molecule: Cc1cc(Nc2ccc(S(=O)(=O)O)c3cc(S(=O)(=O)O)cc(S(=O)(=O)O)c23)c2ccccc2n1
TGI: > 100 µM
--
molecule: Cc1ccnc(NS(=O)(=O)c2ccc(N=[N+]=[N-])cc2)n1
TGI: > 100 µM

Need TGI for each of these molecules.
1. O=C(/C=C/c1ccccc1)C[C@@H](O)C[C@@H]1CC=CC(=O)O1
2. COC(=O)c1c(C)nc2c1cc(O)c1[nH]c(C)c(C)nc12
3. CC(=O)CC(OC(C)=O)C1=CCC2C(CC1C)OC(=O)C2C (stereo not given)
4. N#CC(Cc1ccccc1)N(CCC1=CCCCC1)C(c1ccccc1)c1ccccc1 (stereo not given)
5. C=C1C(=O)O[C@H]2[C@H]1CC/C(COC(=O)NCc1ccc(Cn3c(=O)sn(-c4ccc(OC)cc4)c3=O)cc1)=C\CC[C@@]1(C)O[C@@H]21

**Result**
16.8 µM
> 100 µM
> 100 µM
> 100 µM
3.51 µM
